- Test System: Plasma kallikrein (Homo sapiens, UniProt P03952)
- Sequence (P03952 20-390 limits assumed): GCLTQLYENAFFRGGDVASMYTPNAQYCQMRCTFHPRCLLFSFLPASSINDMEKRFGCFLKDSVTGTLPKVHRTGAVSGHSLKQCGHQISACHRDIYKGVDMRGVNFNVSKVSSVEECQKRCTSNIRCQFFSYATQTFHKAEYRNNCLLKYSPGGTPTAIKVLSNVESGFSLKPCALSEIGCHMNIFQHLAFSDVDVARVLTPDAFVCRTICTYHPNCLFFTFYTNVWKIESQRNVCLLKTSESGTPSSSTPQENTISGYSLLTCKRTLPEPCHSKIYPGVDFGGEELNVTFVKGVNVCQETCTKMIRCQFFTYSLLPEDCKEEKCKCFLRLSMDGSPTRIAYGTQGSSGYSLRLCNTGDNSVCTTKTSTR
- Sequence (P03952 391-638 limits assumed): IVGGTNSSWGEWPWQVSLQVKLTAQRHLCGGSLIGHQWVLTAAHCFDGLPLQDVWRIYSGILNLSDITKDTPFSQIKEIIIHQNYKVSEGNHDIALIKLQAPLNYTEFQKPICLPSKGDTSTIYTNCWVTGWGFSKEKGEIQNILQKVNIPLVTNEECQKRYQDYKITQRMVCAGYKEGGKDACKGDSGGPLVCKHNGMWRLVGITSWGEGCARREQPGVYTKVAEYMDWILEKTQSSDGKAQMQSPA
- Test Method Notes: In Vitro Inhibition Assay: Plasma kallikrein inhibitory activity in vitro was determined using standard published methods (see e.g. Johansen et al., Int. J. Tiss. Reac. 1986, 8, 185; Shori et al., Biochem. Pharmacol., 1992, 43, 1209; Stiirzebecher et al., Biol. Chem. Hoppe-Seyler, 1992, 373, 1025). Human plasma kallikrein (Protogen) was incubated at 37° C. with the fluorogenic substrate H-DPro-Phe-Arg-AFC and various concentrations of the test compound. Residual enzyme activity (initial rate of reaction) was determined by measuring the change in […] at 410 nm and the IC50 value for the test compound was determined.
Value Kind: IC50 (µM)
One number for each entry, in µM.

Consider the worked cases shown below.
> print(dat)
                                   molecule  value.kind  measure.unit  assay.result
1  NCc1ccc(CNC(=O)[C@H](Cc2ccccc2)NC(=O)[C@H](N)CC2CCCCC2)cc1        IC50            µM          0.74
2  NCc1ccc(CNC(=O)[C@H](Cc2ccccc2)NC(=O)[C@@H](Cc2ccc(OCc3ccccc3)cc2)NC(=O)c2ccccc2)cc1        IC50            µM          1.21
3  CCCOc1ccc(C[C@@H](NC(=O)c2ccccc2)C(=O)N[C@@H](Cc2ccccc2)C(=O)NCc2ccc(CN)cc2)cc1        IC50            µM          0.04
4  CCOc1ccc(C[C@@H](NC(=O)c2ccc(OC)cc2)C(=O)N[C@@H](Cc2ccccc2)C(=O)NCc2ccc(CN)cc2)cc1        IC50            µM         0.046
5  CCOc1ccc(C[C@@H](NC(=O)c2ccccc2)C(=O)N[C@@H](Cc2c[nH]c3ccccc23)C(=O)NCc2ccc(CN)cc2)cc1        IC50            µM         0.028

For the next question, use this molecule.
Enquiry: For the molecule CCOc1ccc(C[C@@H](NC(=O)c2ccc(C)cc2)C(=O)N[C@@H](Cc2ccccc2)C(=O)NCc2ccc(CN)cc2)cc1 , what IC50 is on record?
Return: 0.032
